I'd appreciate it if you could supply pEC50 values for the items below.
Test system: MCF7
assay_protocol: Cytotoxic concentration required to inhibit 50% cell growth in MCF-7 breast carcinoma cell lines
Assay type: functional
cond: Homo sapiens, read-out: ED50 (the source's name)
pEC50: −log10 of the molar value.

Consider the reported pEC50 for these molecules:
# input Item: "COc1cc(CCc2cc(OC)c(OC)c(OC)c2)cc(OC)c1" Test system: MCF7 Read-out: pEC50 Value: ?
# output < 4.60

# input Then this molecule: "COc1ccc(CNc2cc(OC)cc(OC)c2)cc1"
# output < 4.60

More entries:
# input Item: "COc1ccc(CCc2ccccc2)cc1OC" Test system: MCF7 Read-out: pEC50 Value: ?
# output < 4.60

###

Tested on: MCF7
assay_protocol: Cytotoxic concentration required to inhibit 50% cell growth in MCF-7 breast carcinoma cell lines
Type: functional
cond: Homo sapiens, read-out: ED50 (the source's name)
reported_property: EC50 (µM)
Numbers only, in µM.

Consider the reported EC50 for these compounds:
# input Endpoint output: EC50 of "COc1cc(/C=C\c2ccc(N(C)C)cc2)cc(OC)c1OC" . Value?
# output 0.0058

# input Then this compound: "COc1ccc(/C=C/c2cc(OC)c(OC)c(OC)c2)cc1"
# output 1.05

# input Then this compound: "COc1cc(OC)c(OC)cc1/C=C/c1ccccc1"
# output 8.5

Would you mind giving EC50 for every compound in the list below?
1. COc1ccc(/C=C\c2cc(OC)c(OC)c(OC)c2)cc1O [COMBRETASTATIN A4]
2. COc1cc(/C=C\c2ccccc2)cc(OC)c1OC
3. COc1ccc(CCc2cc(OC)c(OC)c(OC)c2)cc1
4. COc1ccc(/C=C\c2cc(OC)c(OC)c(OC)c2)c(Cl)c1
5. COc1cc(/C=C/c2ccc(OC(C)=O)cc2)cc(OC)c1OC

# output
3.8e-06
0.25
0.00016
0.046
9.6

All figures here come from ChEMBL document CHEMBL1125188.
